- EXPERIMENTAL_TARGET: T1, human 4-1BB, full-length, expressed on cells (human, UniProt Q07011 24-255)
- T1 construct: also called CD137; TNFRSF9
- T1 sequence (Q07011 24-255): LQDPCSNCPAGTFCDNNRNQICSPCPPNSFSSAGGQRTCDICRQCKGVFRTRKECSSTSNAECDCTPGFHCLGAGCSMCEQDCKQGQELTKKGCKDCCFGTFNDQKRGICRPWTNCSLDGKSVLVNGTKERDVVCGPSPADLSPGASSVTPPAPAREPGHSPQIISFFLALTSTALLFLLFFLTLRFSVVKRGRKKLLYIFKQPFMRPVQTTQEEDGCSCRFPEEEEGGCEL
- TEST_SUMMARY: flow cytometry, Jurkat-4-1BB
Define the label as Met when EC50 is strictly less than 20 nM and as Not met in all remaining cases.

>>> group_label("v28698 (antibody, human IgG1, kappa, L234A L235A, V domains shown, also called humanized 5G8 H1L4) VH: QVQLQESGPGLVKPSETLSLTCTVSGFSLISYGVHWIRQPPGKGLEWIGVIWSGGSTDYNPSLKSRVTISVDTSKNQFSLKLSSVTAADTAVYYCARNPLTATVMDYWGQGTLVTVSS VL: DIQMTQSPSSLSASVGDRVTVTCRASQNVGTNVAWYQQKPGKAPKALIYSASYRDSGVPSRFSGSGSGTDFTLTISSVQPEDLATYYCQQYNSYPLTFGGGTKLEIKR")
"Not met"
>>> group_label("v28728 (antibody, human IgG1, kappa, L234A L235A, V domains shown, also called humanized 1C8 H8L2) VH: EVQLVESGGGLIQPGGSLRISCAVSGFSLTTYAISWVRQAPGKGLEWLGIIWPGGGTNYADSLKGRLTISKDNSKNTVYLQMNSLRTEDTAVYYCARGAGTWYFDVWGQGTLVTVSS VL: DIQMTQSPSSLSASVGDRVTITCSASQGISNYLNWYQQKPGKAPKLLIYYTSSLHSGVPSRFSGSGSGTDYTLTISSLQPEDIATYYCQQYSKFPWTFGQGTKLEIKR")
"Not met"
>>> group_label("v28706 (antibody, human IgG1, kappa, L234A L235A, V domains shown, also called humanized 5G8 H3L4) VH: QVQLQESGPGLVKPSETLSITCTVSGFSLISYGVHWVRQPPGKGLEWLGVIWSGGSTDYNPSLKSRVTISKDTSKNQVSFKLSSLTAADTAIYYCARNPLTATVMDYWGQGTLVTVSS VL: DIQMTQSPSSLSASVGDRVTVTCRASQNVGTNVAWYQQKPGKAPKALIYSASYRDSGVPSRFSGSGSGTDFTLTISSVQPEDLATYYCQQYNSYPLTFGGGTKLEIKR")
"Met"
>>> group_label("v28707 (antibody, human IgG1, kappa, L234A L235A, V domains shown, also called humanized 5G8 H4L1) VH: QVQLQESGPGLVKPSETLSITCTVSGFSLISYGVHWVRQPPGKGLEWLGVIWSGGSTDYNPSLKSRVTISKDNSKNQVSFKLSSLTAADTAIYYCARNPLTATVMDYWGQGTLVTVSS VL: DIQMTQSPSSLSASVGDRVTITCRASQNVGTNVAWFQQKPGKAPKSLIYSASYRDSGVPSRFSGSGSGTDFTLTISSLQPEDFATYYCQQYNSYPLTFGGGTKVEIKR")
"Not met"

Find out if reported EC50 for v28711 (antibody, human IgG1, kappa, L234A L235A, V domains shown, also called humanized 5G8 H4L2) VH: QVQLQESGPGLVKPSETLSITCTVSGFSLISYGVHWVRQPPGKGLEWLGVIWSGGSTDYNPSLKSRVTISKDNSKNQVSFKLSSLTAADTAIYYCARNPLTATVMDYWGQGTLVTVSS VL: DIQMTQSPSSLSASVGDRVTITCRASQNVGTNVAWYQQKPGKAPKALIYSASYRDSGVPSRFSGSGSGTDFTLTISSLQPEDFATYYCQQYNSYPLTFGGGTKVEIKR is less than 20 nM
Not met

Find out if reported EC50 for v28692 (antibody, human IgG1, kappa, L234A L235A, V domains shown, also called humanized 1G1 H3L2) VH: EVQLVESGGGLVQPGGSLRLSCAASGFTFSEFGMHWVRQAPGKGLEWVAYISSGGSTIYYADSVKGRFTISRDNAKNSLYLQMNSLRAEDTAMYYCARDWVDYWGQGTLLTVSS VL: EIVLTQSPATLSLSPGERATLSCKASENVGSYVSWYQQKPGQAPRLLIYGASNRYTGVPARFSGSGSGTDFTLTISSLEPEDFAVYYCGQSYSYPLTFGGGTKVEIKR is less than 20 nM
Met

Find out if reported EC50 for v20036 (antibody, human IgG1, kappa, L234A L235A, V domains shown, Mouse-human chimera; also called 5G8; 5G8 mouse-human parental chimera) VH: QVQLQESGPGLVQPTQSLSITCTVSGFSLISYGVHWVRQSPGKGLEWLGVIWSGGSTDYNAAFISRLSISKDNSKSQVFFKMNSLQADDTAIYYCARNPLTATVMDYWGQGTSVTVSS VL: DIVMTQSQKFMSTSVGDRVSVTCKASQNVGTNVAWYQQKPGQSPKALIYSASYRDSGVPDRFTGSGSGTDFTLTISNVQSEDLAEYLCQQYNSYPLTFGAGTKLELKR is less than 20 nM
Met

Find out if reported EC50 for v28684 (antibody, human IgG1, kappa, L234A L235A, V domains shown, also called humanized 1G1 H1L2) VH: EVQLVESGGGLVQPGGSLRLSCAASGFTFSEFGMHWVRQAPGKGLEWVSYISSGGSTIYYADSVKGRFTISRDNAKNSLYLQMNSLRAEDTAVYYCARDWVDYWGQGTLVTVSS VL: EIVLTQSPATLSLSPGERATLSCKASENVGSYVSWYQQKPGQAPRLLIYGASNRYTGVPARFSGSGSGTDFTLTISSLEPEDFAVYYCGQSYSYPLTFGGGTKVEIKR is less than 20 nM
Met

Find out if reported EC50 for v28713 (antibody, human IgG1, kappa, L234A L235A, V domains shown, also called humanized 5G8 H4L4) VH: QVQLQESGPGLVKPSETLSITCTVSGFSLISYGVHWVRQPPGKGLEWLGVIWSGGSTDYNPSLKSRVTISKDNSKNQVSFKLSSLTAADTAIYYCARNPLTATVMDYWGQGTLVTVSS VL: DIQMTQSPSSLSASVGDRVTVTCRASQNVGTNVAWYQQKPGKAPKALIYSASYRDSGVPSRFSGSGSGTDFTLTISSVQPEDLATYYCQQYNSYPLTFGGGTKLEIKR is less than 20 nM
Met

Find out if reported EC50 for v28705 (antibody, human IgG1, kappa, L234A L235A, V domains shown, also called humanized 5G8 H3L3) VH: QVQLQESGPGLVKPSETLSITCTVSGFSLISYGVHWVRQPPGKGLEWLGVIWSGGSTDYNPSLKSRVTISKDTSKNQVSFKLSSLTAADTAIYYCARNPLTATVMDYWGQGTLVTVSS VL: DIQMTQSPSSLSASVGDRVTVTCRASQNVGTNVAWYQQKPGKAPKALIYSASYRDSGVPSRFSGSGSGTDFTLTISSVQPEDFATYYCQQYNSYPLTFGGGTKLEIKR is less than 20 nM
Met
